biological target: mTOR PI kinase-related kinase (Homo sapiens, UniProt P42345); assay: In vitro mTOR PI kinase-related kinase assay (AlphaScreen), Test (b); details: recombinant mTOR (1362-2549), ATP 20 μM, read-out: IC50 versus mTOR PI kinase-related kinase
Sequence (P42345 1362-2549): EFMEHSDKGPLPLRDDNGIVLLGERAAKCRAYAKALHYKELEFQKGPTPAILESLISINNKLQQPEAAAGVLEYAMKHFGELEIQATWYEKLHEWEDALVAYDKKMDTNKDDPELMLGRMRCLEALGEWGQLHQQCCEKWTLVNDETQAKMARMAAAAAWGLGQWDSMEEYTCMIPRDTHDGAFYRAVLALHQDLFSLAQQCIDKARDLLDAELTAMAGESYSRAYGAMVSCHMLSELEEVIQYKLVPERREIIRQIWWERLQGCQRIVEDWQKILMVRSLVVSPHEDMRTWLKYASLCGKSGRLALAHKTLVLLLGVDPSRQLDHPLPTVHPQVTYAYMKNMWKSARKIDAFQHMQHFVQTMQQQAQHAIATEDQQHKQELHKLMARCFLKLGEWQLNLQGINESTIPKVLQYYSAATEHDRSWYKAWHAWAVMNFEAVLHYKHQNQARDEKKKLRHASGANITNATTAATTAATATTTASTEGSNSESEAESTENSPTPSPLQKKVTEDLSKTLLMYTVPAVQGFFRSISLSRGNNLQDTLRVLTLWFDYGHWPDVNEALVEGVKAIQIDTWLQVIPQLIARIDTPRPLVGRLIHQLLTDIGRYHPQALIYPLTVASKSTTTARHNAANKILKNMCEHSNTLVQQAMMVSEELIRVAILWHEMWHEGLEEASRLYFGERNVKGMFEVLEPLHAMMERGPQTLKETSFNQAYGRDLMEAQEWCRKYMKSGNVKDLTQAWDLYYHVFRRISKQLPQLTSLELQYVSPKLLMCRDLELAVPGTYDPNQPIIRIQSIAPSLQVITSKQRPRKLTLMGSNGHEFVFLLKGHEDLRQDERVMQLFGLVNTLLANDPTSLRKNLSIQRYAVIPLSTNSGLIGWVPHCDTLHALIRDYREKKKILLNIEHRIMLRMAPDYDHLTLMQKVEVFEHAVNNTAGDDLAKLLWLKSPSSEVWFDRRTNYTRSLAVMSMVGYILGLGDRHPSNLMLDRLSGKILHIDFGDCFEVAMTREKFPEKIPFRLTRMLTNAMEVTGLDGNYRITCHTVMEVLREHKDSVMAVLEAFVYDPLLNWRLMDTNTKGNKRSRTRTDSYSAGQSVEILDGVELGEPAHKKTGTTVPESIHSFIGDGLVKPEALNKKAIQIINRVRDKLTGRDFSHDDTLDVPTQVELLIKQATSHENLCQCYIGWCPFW
PROPERTY_LABEL: IC50

Documented IC50 of CS(=O)(=O)Nc1cc(-c2cnc3[nH]ccc3c2)cnc1Cl [Example 1] : ~1 µM

* * *

biological target: p110α Type Ia human PI3K (Homo sapiens); construct: full length DNA of each of the p110α, p110β and p110δ Type Ia human PI3K p110 isoforms; 6-His; test: In vitro PI3K enzyme assay (AlphaScreen), Test (a); details: recombinant enzyme, ATP 4 μM, read-out: IC50 versus p110α Type Ia human PI3K
Sequence (P42336 whole entry, canonical isoform): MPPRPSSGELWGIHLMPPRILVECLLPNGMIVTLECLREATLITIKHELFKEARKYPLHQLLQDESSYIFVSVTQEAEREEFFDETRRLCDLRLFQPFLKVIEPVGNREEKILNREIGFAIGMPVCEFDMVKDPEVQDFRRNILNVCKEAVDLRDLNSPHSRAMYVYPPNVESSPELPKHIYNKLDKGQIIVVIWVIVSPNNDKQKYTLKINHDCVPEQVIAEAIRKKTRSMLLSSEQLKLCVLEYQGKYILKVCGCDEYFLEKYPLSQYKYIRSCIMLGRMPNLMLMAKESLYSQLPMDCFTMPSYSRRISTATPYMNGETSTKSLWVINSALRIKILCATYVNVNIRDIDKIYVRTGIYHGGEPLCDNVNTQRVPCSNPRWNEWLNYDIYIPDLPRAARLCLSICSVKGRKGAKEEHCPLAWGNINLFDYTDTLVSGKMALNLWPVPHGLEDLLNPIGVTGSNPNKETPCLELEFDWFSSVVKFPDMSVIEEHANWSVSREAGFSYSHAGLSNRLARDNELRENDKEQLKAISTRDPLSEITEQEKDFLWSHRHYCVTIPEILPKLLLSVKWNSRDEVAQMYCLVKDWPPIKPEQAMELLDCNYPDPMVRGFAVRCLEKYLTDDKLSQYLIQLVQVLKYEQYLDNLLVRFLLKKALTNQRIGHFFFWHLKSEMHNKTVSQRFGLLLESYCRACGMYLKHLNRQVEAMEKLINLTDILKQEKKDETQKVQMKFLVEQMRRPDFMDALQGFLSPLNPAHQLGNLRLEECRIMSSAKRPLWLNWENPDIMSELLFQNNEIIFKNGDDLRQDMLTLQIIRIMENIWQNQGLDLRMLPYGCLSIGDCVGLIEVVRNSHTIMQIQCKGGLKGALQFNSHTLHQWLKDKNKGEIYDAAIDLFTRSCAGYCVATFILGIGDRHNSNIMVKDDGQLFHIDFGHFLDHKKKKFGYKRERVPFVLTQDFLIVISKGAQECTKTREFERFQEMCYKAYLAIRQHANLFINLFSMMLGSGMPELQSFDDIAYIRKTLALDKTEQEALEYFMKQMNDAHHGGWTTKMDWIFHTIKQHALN
Sequence (P27986 whole entry partner, canonical isoform): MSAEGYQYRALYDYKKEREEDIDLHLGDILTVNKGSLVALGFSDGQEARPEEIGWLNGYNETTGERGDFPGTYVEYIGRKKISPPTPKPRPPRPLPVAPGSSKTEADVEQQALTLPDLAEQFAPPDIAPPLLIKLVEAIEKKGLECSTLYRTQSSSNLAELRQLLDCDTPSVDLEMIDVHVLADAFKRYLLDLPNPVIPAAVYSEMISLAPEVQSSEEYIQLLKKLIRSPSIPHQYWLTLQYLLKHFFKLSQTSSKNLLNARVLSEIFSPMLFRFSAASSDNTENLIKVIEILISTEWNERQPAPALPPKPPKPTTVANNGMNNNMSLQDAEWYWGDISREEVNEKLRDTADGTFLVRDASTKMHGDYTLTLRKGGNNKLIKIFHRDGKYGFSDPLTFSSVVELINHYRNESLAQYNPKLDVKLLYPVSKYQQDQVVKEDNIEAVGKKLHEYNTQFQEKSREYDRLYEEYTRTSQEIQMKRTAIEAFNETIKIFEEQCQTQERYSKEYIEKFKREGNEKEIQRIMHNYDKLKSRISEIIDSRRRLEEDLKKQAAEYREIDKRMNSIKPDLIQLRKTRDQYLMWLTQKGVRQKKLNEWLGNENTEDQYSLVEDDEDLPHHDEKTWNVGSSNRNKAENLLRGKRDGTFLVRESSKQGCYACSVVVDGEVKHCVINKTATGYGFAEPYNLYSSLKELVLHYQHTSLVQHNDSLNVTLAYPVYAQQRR
pIC50: −log10 of the molar value.
Hi there, I'd appreciate the recorded pIC50 for every entry that follows.

Documented pIC50 of CS(=O)(=O)Nc1cc(-c2cnc3[nH]ccc3c2)cnc1Cl : ~6.30

Documented pIC50 of Cc1nc2[nH]ccc2cc1-c1cnc(Cl)c(NS(=O)(=O)c2ccccc2)c1 : ~7.00

Documented pIC50 of Cc1nc2[nH]cnc2cc1-c1cnc(Cl)c(NS(=O)(=O)c2ccccc2)c1 : ~6.30

Documented pIC50 of O=S(=O)(Nc1cc(-c2cnc3[nH]ccc3c2)cnc1Cl)c1ccccc1 : ~6.70
